# maps each entry to its aP2 mRNA
Tested on: aP2
Assay: aP2 mRNA expression in adipocytes (real-time PCR)
Assay type: cell-based, human
Settings: differentiating adipocytes transfected with oligomeric compound; Table 75
In the oligonucleotide strings, read from the 5' end, every base follows the letter of its sugar. An asterisk marks phosphorothioate; unmarked linkages are phosphodiester. Other units and linkages are bracketed, terminal groups are in braces. A string of capitals states the bases alone. e = 2'-O-(2-methoxyethyl) (MOE); [5mC] = 5-methylcytosine

Request: Identify measured aP2 mRNA corresponding to 344269 (antisense UAACCGAUUUCAAAUGGUGCUA; all 2'-MOE, all phosphorothioate, methylation of C and T or U not given here) [compound 344269]
Result: 41 percentage of untreated control (UTC)

Request: Look up and state reported aP2 mRNA for 328135 (eA*e[5mC]*e[5mC]*eG*eA*eA*e[5mC]*eA*eA*eA*eG*eT*e[5mC]*eT*eG*eA*e[5mC]*eA*eG*eG*eA; anti-miR) [compound 328135]
Result: 34 percentage of untreated control (UTC)

Request: Given the substance 341806 (antisense GCCAATATTTCTGTGCTGCTA; all 2'-MOE, all phosphorothioate, methylation of C not given here) [compound 341806] , write its reported aP2 mRNA.
Result: 83 percentage of untreated control (UTC)

Request: Report measured aP2 mRNA; entry is 341807 (antisense CTGGGACTTTGTAGGCCAGTT; all 2'-MOE, all phosphorothioate, methylation of C not given here) [compound 341807]
Result: 82 percentage of untreated control (UTC)

Request: Check the records and state aP2 mRNA for 327895 (antisense eA*e[5mC]*eA*eA*eA*e[5mC]*eA*e[5mC]*e[5mC]*eA*eT*eT*eG*eT*e[5mC]*eA*e[5mC]*eA*e[5mC]*eT*e[5mC]*e[5mC]*eA) [compound 327895]
Result: 90 percentage of untreated control (UTC)

---

System: adipocytes
Assay: Triglyceride accumulation assay in adipocytes
Assay type: cell-based, human
Settings: differentiating adipocytes transfected with oligomeric compound
In the oligonucleotide strings, read from the 5' end, every base follows the letter of its sugar. An asterisk marks phosphorothioate; unmarked linkages are phosphodiester. Other units and linkages are bracketed, terminal groups are in braces. A string of capitals states the bases alone. e = 2'-O-(2-methoxyethyl) (MOE); [5mC] = 5-methylcytosine; d = 2'-deoxy (DNA)
RECORDED_ENDPOINT: TG (triglyceride accumulation)

328417 (antisense eT*eA*eA*eT*eT*dT*dT*dA*dG*dA*dA*dT*d[5mC]*dT*dT*eA*eA*e[5mC]*eG*e[5mC]) [compound 328417] : 83 percentage of untreated control (UTC)
328651 (eG*eG*eT*eA*eA*dG*dA*dG*dG*dA*dT*dG*d[5mC]*dG*d[5mC]*eT*eG*e[5mC]*eT*e[5mC]; antisense) [compound 328651] : 93 percentage of untreated control (UTC)

Request: Fill: TG (triglyceride accumulation) (adipocytes) for this substance 327953 (antisense eA*eG*eA*eA*eT*eT*eG*e[5mC]*eG*eT*eT*eT*eG*eG*eA*e[5mC]*eA*eA*eT*e[5mC]*eA) [compound 327953]
Result: 94 percentage of untreated control (UTC)

Request: Give the observed TG (triglyceride accumulation) of 327956 (antisense e[5mC]*eA*e[5mC]*eA*eG*eT*eT*eG*e[5mC]*e[5mC]*eA*eG*e[5mC]*eT*eG*eA*eG*eA*eT*eT*eA) [compound 327956] for adipocytes.
Result: 80 percentage of untreated control (UTC)

Request: Enter measured TG (triglyceride accumulation), system adipocytes, for the substance shown: 328093 (antisense eT*eA*eA*eA*e[5mC]*eA*eT*e[5mC]*eA*e[5mC]*eT*eG*e[5mC]*eA*eA*eG*eT*e[5mC]*eT*eT*eA) [compound 328093]
Result: 59 percentage of untreated control (UTC)

Request: Answer briefly: TG (triglyceride accumulation) recorded on adipocytes for 327937 (antisense eG*eA*eT*eT*e[5mC]*eA*e[5mC]*eA*eA*e[5mC]*eA*e[5mC]*e[5mC]*eA*eG*e[5mC]*eT) [compound 327937]
Result: 81 percentage of untreated control (UTC)

Request: Fetch value of TG (triglyceride accumulation) on adipocytes for 327904 (antisense eA*e[5mC]*eT*e[5mC]*eA*e[5mC]*e[5mC]*eG*eA*e[5mC]*eA*eG*e[5mC]*eG*eT*eT*eG*eA*eA*eT*eG*eT*eT) [compound 327904] .
Result: 56 percentage of untreated control (UTC)

Request: Enter recorded TG (triglyceride accumulation) with adipocytes for 328112 (antisense eA*eT*e[5mC]*eA*eT*eT*eA*e[5mC]*eT*eG*eG*eA*eT*eT*eG*e[5mC]*eT*eG*eT*eA*eA) [compound 328112] here.
Result: 92 percentage of untreated control (UTC)

---

Test system: Glut4
Experiment: Glut4 mRNA expression in adipocytes (real-time PCR)
Type: cell-based, human
Conditions: differentiating adipocytes transfected with oligomeric compound; Table 75
In the oligonucleotide strings, read from the 5' end, every base follows the letter of its sugar. An asterisk marks phosphorothioate; unmarked linkages are phosphodiester. Other units and linkages are bracketed, terminal groups are in braces. A string of capitals states the bases alone. e = 2'-O-(2-methoxyethyl) (MOE); [5mC] = 5-methylcytosine
RECORDED_ENDPOINT: GLUT4 mRNA

# count of solved cases: 5
328102 (antisense eG*e[5mC]*e[5mC]*e[5mC]*e[5mC]*eA*eT*eT*eA*eA*eT*eA*eT*eT*eT*eT*eA*eA*e[5mC]*e[5mC]*eA) [compound 328102] : 58 percentage of untreated control (UTC)
327970 (antisense eA*e[5mC]*eA*eA*eA*eG*eT*eT*e[5mC]*eT*eG*eT*eA*eG*eT*eG*e[5mC]*eA*e[5mC]*eT*eG*eA) [compound 327970] : 27 percentage of untreated control (UTC)
327879 (antisense eA*eA*e[5mC]*eA*eA*eA*eA*eT*e[5mC]*eA*e[5mC]*eT*eA*eG*eT*e[5mC]*eT*eT*e[5mC]*e[5mC]*eA) [compound 327879] : 99 percentage of untreated control (UTC)
340356 (antisense CUCAAUAGACUGUGAGCUCCUU; all 2'-MOE, all phosphorothioate, methylation of C and T or U not given here) [compound 340356] : 54 percentage of untreated control (UTC)
346688 (UAGUUGGCAAGUCUAGAACCA; all 2'-MOE, all phosphorothioate, methylation of C and T or U not given here) [compound 346688] : 12 percentage of untreated control (UTC)

Here is another substance to look at.
Request: Item 327969 (antisense eT*eG*eT*eG*eA*eG*eT*eT*e[5mC]*eT*eA*e[5mC]*e[5mC]*eA*eT*eT*eG*e[5mC]*e[5mC]*eA*eA*eA) [compound 327969] : provide GLUT4 mRNA
Result: 36 percentage of untreated control (UTC)

---

Test system: HeLa cells
Experiment: Cell cycle assay in HeLa cells
Type: cell-based, human
Conditions: HeLa cells, 150 nM oligomeric compound, 24 hours, relative to untreated control (UTC = 100)
In the oligonucleotide strings, read from the 5' end, every base follows the letter of its sugar. An asterisk marks phosphorothioate; unmarked linkages are phosphodiester. Other units and linkages are bracketed, terminal groups are in braces. A string of capitals states the bases alone. e = 2'-O-(2-methoxyethyl) (MOE); [5mC] = 5-methylcytosine; d = 2'-deoxy (DNA)
Threshold rule: % cells in cell cycle phase S greater than or equal to 90% is yes; below that, no.

As a guide, the following entries are already answered.
327901 (antisense eT*eG*eA*eG*e[5mC]*eT*eA*e[5mC]*eA*eG*eT*eG*e[5mC]*eT*eT*e[5mC]*eA*eT*e[5mC]*eT*e[5mC]*eA) [compound 327901] : yes
327908 (antisense e[5mC]*eA*eA*eT*eG*e[5mC]*eA*eA*e[5mC]*eT*eA*e[5mC]*eA*eA*eT*eG*e[5mC]*eA*e[5mC]) [compound 327908] : yes
327889 (antisense eG*eT*eG*eG*eT*eA*eA*eT*e[5mC]*e[5mC]*e[5mC]*eT*eG*eG*e[5mC]*eA*eA*eT*eG*eT*eG*eA*eT) [compound 327889] : yes
338769 (antisense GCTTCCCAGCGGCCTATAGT; all 2'-MOE, all phosphorothioate, methylation of C not given here) [compound 338769] : no
328749 (antisense e[5mC]*eA*eG*e[5mC]*e[5mC]*dT*dG*d[5mC]*d[5mC]*dA*d[5mC]*d[5mC]*dG*d[5mC]*d[5mC]*eG*e[5mC]*eT*eT*eT) [compound 328749] : no

Request: Does % cells in cell cycle phase S meet or surpass 90% for 338713 (antisense ACCTCTCAGGAAGACGGACT; all 2'-MOE, all phosphorothioate, methylation of C not given here) [compound 338713] ?
Result: no
